Test system: H211
assayInfo: Alamar Blue cell viability assay, H211
Type: cell-based
conditionLabel: Homo sapiens, NCI-H211; H211, Small cell lung cancer, alamarBlue, incubation 72 h
attributeMeasured: IC50
Dear colleague, please send the value followed by its unit.

Q: Recall and state the measured IC50 for `CCOCCN1CCN(c2ccc(-c3nc4c(NC5CCN(CC)CC5)c(Br)cnc4[nH]3)cc2)CC1` .
Result: 180 nM

----------
Test system: H1975
assayInfo: MTT cytotoxicity assay, H1975
Assay type: cell-based
conditionLabel: Homo sapiens, NCI-H1975, H1975, Non-small cell lung cancer, incubation 72 h
attributeMeasured: pIC50
Remember the convention: pIC50 equals -log10 of concentration in molar.

Q: Provide the reported pIC50 (system: H1975) for `CCOCCN1CCN(c2ccc(-c3nc4c(NC5CCN(CC)CC5)c(Br)cnc4[nH]3)cc2)CC1`
Result: 6.60

----------
System: H146
assayInfo: Alamar Blue cell viability assay, H146
Type: cell-based
conditionLabel: Homo sapiens, NCI-H146; H146, Small cell lung cancer, alamarBlue, incubation 72 h
attributeMeasured: pIC50
Scale for pIC50: -log10 of concentration given in mol/L; no unit attached.

Q: Quick one: give measured pIC50 for `CCOCCN1CCN(c2ccc(-c3nc4c(NC5CCN(CC)CC5)c(Br)cnc4[nH]3)cc2)CC1`
Result: 6.64

----------
Tested on: H82
assayInfo: Alamar Blue cell viability assay, H82
Format: cell-based
conditionLabel: Homo sapiens, NCI-H82; H82, Small cell lung cancer, alamarBlue, incubation 72 h
attributeMeasured: IC50 (nM)
Numeric answer only, unit nM assumed.

Q: Identify measured IC50 associated with `CCOCCN1CCN(c2ccc(-c3nc4c(NC5CCN(CC)CC5)c(Br)cnc4[nH]3)cc2)CC1`
Result: 410

----------
Test system: Kelly
assayInfo: MTT cytotoxicity assay, Kelly
Format: cell-based
conditionLabel: Neuroblastoma, incubation 48 h
attributeMeasured: IC50 (nM)
Number only, in nM; omit the unit.

Q: Give the value of IC50 reported for the following: `CCOCCN1CCN(c2ccc(-c3nc4c(NC5CCN(CC)CC5)c(Br)cnc4[nH]3)cc2)CC1`
Result: 80

----------
System: EHEB
assayInfo: MTT cytotoxicity assay, EHEB
Assay type: cell-based
conditionLabel: CLL cell line, DSMZ bank, (ACC 67), incubation 48 h
attributeMeasured: IC50 (nM)
Just the number please, in nM, no unit attached.

Q: Could you please provide reported IC50 for CCOCCN1CCN(c2ccc(-c3nc4c(NC5CCN(CC)CC5)c(Br)cnc4[nH]3)cc2)CC1 [Example 172] ? Thanks!
Result: 200

----------
Test system: Granta-519
assayInfo: MTT cytotoxicity assay, Granta-519
Type: cell-based
conditionLabel: Homo sapiens, Granta-519, Mantle Cell Lymphoma (MCL), incubation 96 h
attributeMeasured: IC50 (nM)
# number only, unit nM dropped from output

Q: Give IC50 for the following compound: `CCOCCN1CCN(c2ccc(-c3nc4c(NC5CCN(CC)CC5)c(Br)cnc4[nH]3)cc2)CC1`
Result: 250

----------
Tested on: AMO-1
assayInfo: MTT cytotoxicity assay, AMO-1
Type: cell-based
conditionLabel: Homo sapiens, AMO1, AMO-1, Multiple Myeloma (MM), incubation 96 h
Procedure: The MTT assay (Sigma-Aldrich) was used to measure cytotoxic capability of the ROR1 tyrosine kinase inhibitors (ROR1-TKI). Briefly, 2×10^4 cancer cells were incubated in triplicates in 200 μL of RPMI-1640 containing 10% FCS in 96 well plates. ROR1-TKI (dissolved in DMSO), were added to the cells. Cells treated with DMSO were used as negative control. Cells were incubated for 48, 72 or 96 h. […] The plate was then read by a microplate reader at 570 nm. […]
attributeMeasured: pIC50
// pIC50: -log10(molar conc.)

Q: Supply pIC50 value. Item: `CCOCCN1CCN(c2ccc(-c3nc4c(NC5CCN(CC)CC5)c(Br)cnc4[nH]3)cc2)CC1`
Result: 7.30

----------
System: H23
assayInfo: MTT cytotoxicity assay, H23
Format: cell-based
conditionLabel: Homo sapiens, NCI-H23, H23, Non-small cell lung cancer, incubation 72 h
attributeMeasured: IC50 (nM)
Number in nM, nothing else.

Q: Look up IC50 of `CCOCCN1CCN(c2ccc(-c3nc4c(NC5CCN(CC)CC5)c(Br)cnc4[nH]3)cc2)CC1` and report it.
Result: 150

----------
Tested on: H187
assayInfo: Alamar Blue cell viability assay, H187
Assay type: cell-based
conditionLabel: Homo sapiens, NCI-H187; H187, Small cell lung cancer, alamarBlue, incubation 72 h
attributeMeasured: pIC50
Scale explanation: pIC50 corresponds to minus log10 of a concentration expressed in moles per litre.

Q: Give recorded pIC50. `CCOCCN1CCN(c2ccc(-c3nc4c(NC5CCN(CC)CC5)c(Br)cnc4[nH]3)cc2)CC1`
Result: 6.64

----------
Test system: HDLM2
assayInfo: MTT cytotoxicity assay, HDLM2
Assay type: cell-based
conditionLabel: Homo sapiens, HDLM-2, HDLM2, Hodgkin’s Lymphoma (HL), incubation 48 h
attributeMeasured: pIC50
// pIC50 is dimensionless: -log10 of concentration (M)

Q: Provide one value: measured pIC50 of `CCOCCN1CCN(c2ccc(-c3nc4c(NC5CCN(CC)CC5)c(Br)cnc4[nH]3)cc2)CC1`
Result: 7.30

----------
Tested on: RC-KB
assayInfo: MTT cytotoxicity assay, RC-KB
Type: cell-based
conditionLabel: Diffuse large B-cell lymphoma (DLBCL), incubation 48 h
Method: The MTT assay (Sigma-Aldrich) was used to measure cytotoxic capability of the ROR1 tyrosine kinase inhibitors (ROR1-TKI). Briefly, 2×10^4 cancer cells were incubated in triplicates in 200 μL of RPMI-1640 containing 10% FCS in 96 well plates. ROR1-TKI (dissolved in DMSO), were added to the cells. Cells treated with DMSO were used as negative control. Cells were incubated for 48, 72 or 96 h. […] The plate was then read by a microplate reader at 570 nm. […]
attributeMeasured: pIC50
Please treat pIC50 as minus the base-10 logarithm of the molar concentration.

Q: Read off the recorded pIC50 for `CCOCCN1CCN(c2ccc(-c3nc4c(NC5CCN(CC)CC5)c(Br)cnc4[nH]3)cc2)CC1`
Result: 7.00

----------
Tested on: 232-B4
assayInfo: MTT cytotoxicity assay, 232-B4
Type: cell-based
conditionLabel: 232-B4, CLL cell line, ExPASy Accession No: CVCL_Y436, MTT, incubation 48 h
attributeMeasured: pIC50
Formally, pIC50 is defined as -log10 of the concentration c, with c in mol/L.

Q: Give reported pIC50 value for `CCOCCN1CCN(c2ccc(-c3nc4c(NC5CCN(CC)CC5)c(Br)cnc4[nH]3)cc2)CC1`
Result: 6.70
